# key: entry, value: melting point

>  <RECORD_SMILES>
COC(=O)c1ccc(N2CCC(N(C)Cc3ccc(F)cc3)CC2)cc1

>  <OUTPUT_UNIT>
°C

>  <melting point>
92

$$$$
>  <RECORD_SMILES>
CC(=O)CSc1nc2ccc(Cc3ccccc3)cc2[nH]1

>  <OUTPUT_UNIT>
°C

>  <melting point>
102

$$$$

---

This listing pairs compounds with measured melting point.

>  <COMPOUND>
CC(C)(C)c1cc(C2CCC3SC2CCC3c2cc(C(C)(C)C)c(O)c(C(C)(C)C)c2)cc(C(C)(C)C)c1O (stereo unspecified)

>  <melting point>
247 to 250 °C

$$$$
>  <COMPOUND>
NC(=O)N(O)CCNC(=O)c1cccc(Oc2ccccn2)c1

>  <melting point>
159 to 160 °C

$$$$
>  <COMPOUND>
Cc1cc(OCC(=O)O)ccc1NC(=O)c1ccc(N2CCNCC2)cc1

>  <melting point>
> 250 °C

$$$$
>  <COMPOUND>
CC1Nc2cccc3c(O)ccc(c23)S1(=O)=O (stereo unspecified)

>  <melting point>
245 to 246 °C

$$$$
>  <COMPOUND>
CC(C)(CO)COc1ccc(-c2c(C(N)=O)oc3ccccc23)cc1C#N

>  <melting point>
199 to 201 °C

$$$$
>  <COMPOUND>
CCN(CC)c1ccc(C2(c3ccc(N(C)C)cc3)OC(=O)c3cc(N(C)C)ccc32)c(C)c1 (stereo unspecified)

>  <melting point>
190 to 195 °C

$$$$
>  <COMPOUND>
COc1cc(C(NC(=O)OC(C)(C)C)C(c2ccccc2)[N+](=O)[O-])ccc1Br (stereo unspecified)

>  <melting point>
157 to 159 °C

$$$$
>  <COMPOUND>
COC(=O)c1cccc2nc(SCCCN3CCN(CC(=O)Nc4c(C(C)C)cccc4C(C)C)CC3)oc12

>  <melting point>
135 to 136 °C

$$$$
>  <COMPOUND>
Cc1cc2oc(=O)c(NC(=O)Nc3cccc(C(F)(F)F)c3)c(-c3ccccc3C)c2cc1Cl

>  <melting point>
203 to 205 °C

$$$$
>  <COMPOUND>
Cc1cc(C)cc(S(=O)(=O)n2c(CCCC(=O)O)cc3cc(Cl)ccc32)c1

>  <melting point>
204 to 206 °C

$$$$
>  <COMPOUND>
O=C(c1ccc(F)cc1)C1CCN(CCn2c(-c3ccccc3)nc3ccccc3c2=O)CC1

>  <melting point>
144 °C

$$$$
>  <COMPOUND>
CS(=O)(=O)c1ccc(Oc2ccc(Cl)c(Cl)c2)c(N)c1

>  <melting point>
119 to 121 °C

$$$$
>  <COMPOUND>
CCOCn1cc(C(C)C)c(=O)[nH]c1=O

>  <melting point>
78.4 °C

$$$$
>  <COMPOUND>
CN(C)Cc1cc(Oc2ccc3c(C(=O)Nc4cccc(C(F)(F)F)c4)cccc3c2)ncn1

>  <melting point>
180 to 181 °C

$$$$
>  <COMPOUND>
Clc1cc(Cl)c(Cl)nn1

>  <melting point>
57 to 58 °C

$$$$
>  <COMPOUND>
Nc1ccc2c3c(cccc13)CC2

>  <melting point>
178 to 179 °C

$$$$
>  <COMPOUND>
COc1ccc(CN2CCc3c(nc4ccc(OC)cc4c3-c3ccc(OC)cc3)C2=O)cc1

>  <melting point>
132 to 134 °C

$$$$
>  <COMPOUND>
CSc1ccc(-n2c(-c3cccnc3)nc(SC)c(C#N)c2=O)cc1

>  <melting point>
212 to 215 °C

$$$$
>  <COMPOUND>
O=C(CNc1ccccc1)Nc1c(Cl)cccc1C(=O)O

>  <melting point>
184 to 185 °C

$$$$
>  <COMPOUND>
COc1ccc(S(C)(=O)=O)cc1C=O

>  <melting point>
140 to 143 °C

$$$$
>  <COMPOUND>
COc1nnc2n1-c1sc(CCC(=O)N3CCOCC3)cc1C(c1ccccc1Cl)=NC2

>  <melting point>
163 to 164 °C

$$$$
>  <COMPOUND>
CC(=O)c1cccc(Oc2ncc(C(F)(F)F)cc2F)c1

>  <melting point>
65 to 67 °C

$$$$
>  <COMPOUND>
Nc1ncnc2c1c(-c1ccc(Oc3ccccc3)cc1)nn2C1CCC(=O)CC1

>  <melting point>
203 to 205 °C

$$$$
>  <COMPOUND>
O=C(O)c1ccc(Cc2nc3ccccc3[nH]2)cc1

>  <melting point>
265 to 267 °C

$$$$
>  <COMPOUND>
CC(=O)Nc1cccc(-c2c(C)c(NC(=O)CC(C)(C)C)c(C)c3c2OCC3c2ccc(C(C)C)cc2)c1 (stereo unspecified)

>  <melting point>
247 to 248 °C

$$$$
>  <COMPOUND>
Cc1ccc2cccc(OCc3cccc(NC(=O)CN4C(=O)c5ccccc5C4=O)c3C)c2n1

>  <melting point>
283 to 285 °C

$$$$
>  <COMPOUND>
COC(=O)CC(=O)Cc1cc(F)c(F)cc1F

>  <melting point>
37 to 39 °C

$$$$
>  <COMPOUND>
CCn1c(CO)nc2cccnc21

>  <melting point>
117 to 121 °C

$$$$
>  <COMPOUND>
COc1ccc(C(=O)Nc2ccc(F)c(F)c2)cc1NCc1cccs1

>  <melting point>
172 to 174 °C

$$$$
>  <COMPOUND>
C=CCN(CCC12CC3CC(CC(C3)C1)C2)C(=O)NCCCc1ccncc1

>  <melting point>
99 to 102 °C

$$$$
>  <COMPOUND>
CC1Nc2ccccc2N(Cc2ccccc2)C(=O)C1C/C=C/c1ccccc1 (stereo unspecified)

>  <melting point>
119 to 120 °C

$$$$
>  <COMPOUND>
CCOc1ccc(C(=O)NCc2ccc3c(c2)C(=O)N(C2(C)CCC(=O)NC2=O)C3=O)cc1 (stereo unspecified)

>  <melting point>
163 to 165 °C

$$$$
>  <COMPOUND>
O=[N+]([O-])c1cnn2c1-c1ccccc1NC2c1ccccc1 (stereo unspecified)

>  <melting point>
157 to 158 °C

$$$$
>  <COMPOUND>
O=C(O)CCCCc1cc(O)c(O)c([N+](=O)[O-])c1

>  <melting point>
135 to 138 °C

$$$$
>  <COMPOUND>
Cc1cc(Oc2cccc(C(F)(F)F)c2)nn1C(=O)Nc1ccccc1Cl

>  <melting point>
84 to 86 °C

$$$$
>  <COMPOUND>
CC1=C(C(=O)c2ccc(Br)cc2)C(=O)C2C(O)=CC=CC2C1=O (stereo unspecified)

>  <melting point>
161 to 162 °C

$$$$
>  <COMPOUND>
Cn1ccnc1-c1ccc(O)cc1

>  <melting point>
239 to 242 °C

$$$$
>  <COMPOUND>
Cc1c[nH]c(-c2ccc(F)cc2)c1-c1ccc(F)cc1

>  <melting point>
126 to 127 °C

$$$$
>  <COMPOUND>
CC1(c2cccc(S(N)(=O)=O)c2)OCCO1

>  <melting point>
155 to 157 °C

$$$$
>  <COMPOUND>
COc1cc2oc(=O)c(CCN3CCN(c4ccccc4OC)CC3)c(C)c2cc1OC

>  <melting point>
174 to 175 °C

$$$$
>  <COMPOUND>
N#Cc1ncc(F)cc1O

>  <melting point>
201 °C

$$$$

---

Each item that follows carries a reported melting point.
QUANTITY_NAME: melting point

>  <COMPOUND>
Cn1cncc1C(O)(c1ccc(F)cc1)c1ccc2c(c1)C(c1cccc(Cl)c1)Nc1nnnn1-2 (stereo unspecified)

>  <QUANTITY_NAME>
melting point

>  <RESULT>
121 °C

$$$$
>  <COMPOUND>
Cc1ccc(N2C(=O)c3nccnc3C2=O)nc1

>  <QUANTITY_NAME>
melting point

>  <RESULT>
240 °C

$$$$
>  <COMPOUND>
COc1ccc(-c2cccc(-c3nc(=O)c4ccccc4s3)n2)cc1

>  <QUANTITY_NAME>
melting point

>  <RESULT>
200 to 201 °C

$$$$
>  <COMPOUND>
CCOC(=O)CCCCC(=O)c1ccc2cc(O)ccc2c1

>  <QUANTITY_NAME>
melting point

>  <RESULT>
139 to 142 °C

$$$$
>  <COMPOUND>
O=C1c2ccccc2-c2c1c1ccccc1c(=O)n2CCCCCO

>  <QUANTITY_NAME>
melting point

>  <RESULT>
144 to 146 °C

$$$$
>  <COMPOUND>
CC(=O)C(=C1SCCCN1Br)[N+](=O)[O-]

>  <QUANTITY_NAME>
melting point

>  <RESULT>
101 to 104 °C

$$$$
>  <COMPOUND>
CCOC(=O)CC1=NCC(c2cccc(OCc3ccc4ccccc4n3)c2)O1 (stereo unspecified)

>  <QUANTITY_NAME>
melting point

>  <RESULT>
94 to 95 °C

$$$$
>  <COMPOUND>
CCCCc1oc2ccccc2c1C(=O)NCc1ccc2c(Br)c(OCC(=O)OC)ccc2c1

>  <QUANTITY_NAME>
melting point

>  <RESULT>
140 to 141 °C

$$$$
>  <COMPOUND>
NCCc1ncccc1C(N)=O

>  <QUANTITY_NAME>
melting point

>  <RESULT>
54 °C

$$$$
>  <COMPOUND>
CCN(C(=O)c1ccccc1[Si](C)(C)C)C(OC)C(C)(C)C (stereo unspecified)

>  <QUANTITY_NAME>
melting point

>  <RESULT>
76 to 78 °C

$$$$
>  <COMPOUND>
COc1ccc2c(=O)[nH]nc(-c3ccccc3)c2c1

>  <QUANTITY_NAME>
melting point

>  <RESULT>
230 to 235 °C

$$$$
>  <COMPOUND>
O=C(O)c1ccc(-c2c([N+](=O)[O-])oc3c2ccc2ccccc23)cc1

>  <QUANTITY_NAME>
melting point

>  <RESULT>
> 300 °C

$$$$
>  <COMPOUND>
O=C1CNC(=O)N1c1cc(Cl)cc(Cl)c1

>  <QUANTITY_NAME>
melting point

>  <RESULT>
199 °C

$$$$
>  <COMPOUND>
Cc1c(C(F)(F)F)cc(Cl)c(-n2cnc(C(F)(F)F)cc2=O)c1Cl

>  <QUANTITY_NAME>
melting point

>  <RESULT>
204 to 206 °C

$$$$
>  <COMPOUND>
Cc1ccc(S(=O)(=O)N2CCCC2CO)cc1 (stereo unspecified)

>  <QUANTITY_NAME>
melting point

>  <RESULT>
90 to 91 °C

$$$$
>  <COMPOUND>
COC(=O)c1cc(CCC(=O)NCc2ccccc2)ccc1O

>  <QUANTITY_NAME>
melting point

>  <RESULT>
139 to 140 °C

$$$$
>  <COMPOUND>
O=C1C(c2ccccc2)=C(c2ccccc2)C(=O)N1c1ccc(Cl)cc1

>  <QUANTITY_NAME>
melting point

>  <RESULT>
198 to 199 °C

$$$$
>  <COMPOUND>
Cn1nc2c(-c3ccc(Cl)cc3Cl)cccc2c1C1=NCCO1

>  <QUANTITY_NAME>
melting point

>  <RESULT>
162 to 167 °C

$$$$
>  <COMPOUND>
CN(C)C(=O)CC(=O)c1ccc(C(=O)CC(=O)C(C)(C)C)cc1

>  <QUANTITY_NAME>
melting point

>  <RESULT>
159 to 160 °C

$$$$
>  <COMPOUND>
CC(C)Cc1cc(-c2cc(C=C3SC(=O)NC3=O)ccc2OC(F)(F)F)c2c(c1)C(C)(C)CO2

>  <QUANTITY_NAME>
melting point

>  <RESULT>
142 to 146 °C

$$$$
>  <COMPOUND>
CCN(CC)c1nc2cc(C)nn2c2ccncc12

>  <QUANTITY_NAME>
melting point

>  <RESULT>
118 °C

$$$$
